These entries and their values trace back to PubChem BioAssay (NCI).

tested on: MALME-3M melanoma; experiment: NCI-60 one-dose screen, 48 h; conditions: 10 µM
Compounds without any hit were thinned out: in the full panel of roughly 83,000, 20% have a hit. Calls of active or inactive are those of the source. The calls were made as follows: active = growth percent below 10; inactive = the rest.
Give your call using only these classes: Y = active, N = inactive

The following molecules have reported results that may help.
* S=c1nc(-c2ccccc2)cc(-c2cc3ccccc3nc2Cl)[nH]1 | N
* c1ccc(C(=C(c2ccc(OCCN3CCCCC3)cc2)c2ccc(OCCN3CCCCC3)cc2)C2CCCC2)cc1 | Y
* COc1cc(-c2nc3cc(Cl)c(Cl)cc3[nH]2)ccc1OCc1nnc(-c2ccc(Br)cc2)o1 | Y

Outcome logged for CN1CCN(c2ccc(Nc3nc(NCCCNC(=O)C4CCCCC4)c4sccc4n3)cc2)CC1 in this assay:
Y

Outcome logged for CCN1CCN(c2ccc(NC(=O)Nc3ccc4c(c3F)CCN4c3ccnc(C(=O)NC)c3)cc2C(F)(F)F)CC1 in this assay:
Y

Outcome logged for COc1ccc(C(=O)Nc2sc3c(c2C#N)CCC(=O)C3)cc1C(F)(F)F in this assay:
Y

Outcome logged for O=C(N=Nc1c(O)[nH]c2ccc(Br)cc12)c1ccc2nc(-c3ccccc3)[nH]c2c1 in this assay:
Y

Outcome logged for COc1ccc2c3nc4cc(C)c(C)cc4nc3n(CCN(C)C)c2c1 in this assay:
Y

Outcome logged for O/N=C(\CSc1nnc(-c2c[nH]c3ccccc23)n1-c1ccccc1)c1ccc(Cl)cc1 in this assay:
N

Outcome logged for CCN(CC)CCOc1ccc(C(=C(C)c2ccccc2)c2ccc(OCCN(CC)CC)cc2)cc1 in this assay:
Y

Outcome logged for O=C1CCC(N2Cc3c(NCc4ccc(-c5ccccc5)cc4)cccc3C2=O)C(=O)N1 (stereo not drawn) in this assay:
N

Outcome logged for O=C(Nc1ccc(Cl)c(C(F)(F)F)c1)c1cncc(C#Cc2cnc3ccc(N4CCOCC4)nn23)c1 in this assay:
Y
